Recorded measurements of HEMATOCRIT, one per entry
Species on record: Rattus norvegicus
experimental.details: DrugMatrix - Regimen: Daily Repeat
Format: toxicity, organism-based, Sprague-Dawley
Design: regimen Daily Repeat, gender Male, age 6-8 weeks
measurement.conditions: in vivo, po, 1500 mg/kg, 120 h, tissue Blood, route oral GAVAGE, dose level High, time 5 day, vehicle .5 % CMC
Your answer should be a number followed by the unit of measure.

[[record]]
molecule = "O=C(O)CCc1nc(-c2ccccc2)c(-c2ccccc2)o1"
readout_value = "35.9%"


// recorded HEMATOCRIT for COc1cc(/C=C/C(=O)O)ccc1O [FERULATE] : 38.23%

Quick note, HEMATOCRIT for Cc1ccc(S(=O)(=O)NC(=O)NN2CCCCCC2)cc1 [TOLAZAMIDE] landed at 38.2%

Query "CC[C@H]1OC(=O)[C@H](C)[C@@H](O[C@H]2C[C@@](C)(OC)[C@@H](O)[C@H](C)O2)[C@H](C)[C@@H](O[C@@H]2O[C@H](C)C[C@H](N(C)C)[C@H]2O)[C@](C)(O)C[C@@H](C)C(=O)[C@H](C)[C@@H](O)[C@]1(C)O" yields HEMATOCRIT of 39.67%

HEMATOCRIT in this record for COc1ccc(Cl)cc1C(=O)NCCc1ccc(S(=O)(=O)NC(=O)NC2CCCCC2)cc1 [GLYBURIDE] : 36.93%

====

# LEUKOCYTE COUNT per record follows
Species: Rattus norvegicus
experimental.details: DrugMatrix - Regimen: Daily Repeat
Type: toxicity, organism-based, Sprague-Dawley
Parameters: regimen Daily Repeat, gender Male, age 6-8 weeks
measurement.conditions: in vivo, po, 0 mg/kg, 120 h, tissue Blood, route oral GAVAGE, dose level Control, time 5 day, vehicle 100 % WATER

Some compounds with known LEUKOCYTE COUNT results, for comparison:
[[record]]
compound = "CCN(CC)C(=S)SSC(=S)N(CC)CC"
readout_value = "13.6 x10E3/uL"

[[record]]
compound = "Cc1cc(C(C)(C)C)c(O)c(C)c1CC1=NCCN1"
readout_value = "15.87 x10E3/uL"

[[record]]
compound = "C[N+](C)(C)CCOC(N)=O.[Cl-]"
readout_value = "8.18 x10E3/uL"

[[record]]
compound = "CN1C(=O)OC(C)(C)C1=O"
readout_value = "12.34 x10E3/uL"

[[record]]
compound = "CC(Cl)(Cl)Cl"
readout_value = "8.42 x10E3/uL"


For "Cc1cn([C@H]2C=C[C@@H](CO)O2)c(=O)[nH]c1=O" the compound record lists LEUKOCYTE COUNT as 8.18 x10E3/uL

For reference, reported LEUKOCYTE COUNT for "C1CCN2C[C@@H]3C[C@@H](CN4CCCC[C@@H]34)[C@H]2C1" stands at 8.42 x10E3/uL

# compound NN [HYDRAZINE] ; its LEUKOCYTE COUNT = 13.67 x10E3/uL

Just so you know, measured LEUKOCYTE COUNT for "CCC1(c2ccccc2)C(=O)NC(=O)NC1=O" came out at 8.73 x10E3/uL

====

Species: Rattus norvegicus
experimental.details: DrugMatrix - Regimen: Daily Repeat
Assay type: toxicity, organism-based, Sprague-Dawley
Parameters: regimen Daily Repeat, gender Male, age 6-8 weeks
measurement.conditions: in vivo, po, 0 mg/kg, 120 h, tissue Blood, route oral GAVAGE, dose level Control, time 5 day, […]
readout: PLATELET COUNT (x10E3/uL)
The figure you give is taken to be in x10E3/uL; do not add the unit.

See these solved cases before continuing.
[[record]]
compound = "CS(=O)(=O)c1ccc(C2=C(c3ccccc3)C(=O)OC2)cc1"
readout_value = 1052.67

[[record]]
compound = "O=C(Nc1ccc(Cl)c(Cl)c1)c1cc(Cl)cc(Cl)c1O [3,3',4',5-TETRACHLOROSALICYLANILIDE]"
readout_value = 1097.83

[[record]]
compound = "O=C(O)COC(=O)Cc1ccccc1Nc1c(Cl)cccc1Cl"
readout_value = 883.83


Next:
Documented PLATELET COUNT of "CO[C@H]1O[C@@H]2O[C@@]3(C)CC[C@H]4[C@H](C)CC[C@@H]([C@H]1C)[C@@]24OO3" : 1183.5
